Provenance of the data: ChEMBL document CHEMBL3988442

Items are presented alongside their recorded Percent Effect.
- Target system: Tyrosyl-tRNA synthetase, putative (Trypanosoma cruzi (strain CL Brener)) (UniProt Q4DSP6)
- Sequence (Q4DSP6 as listed by the source): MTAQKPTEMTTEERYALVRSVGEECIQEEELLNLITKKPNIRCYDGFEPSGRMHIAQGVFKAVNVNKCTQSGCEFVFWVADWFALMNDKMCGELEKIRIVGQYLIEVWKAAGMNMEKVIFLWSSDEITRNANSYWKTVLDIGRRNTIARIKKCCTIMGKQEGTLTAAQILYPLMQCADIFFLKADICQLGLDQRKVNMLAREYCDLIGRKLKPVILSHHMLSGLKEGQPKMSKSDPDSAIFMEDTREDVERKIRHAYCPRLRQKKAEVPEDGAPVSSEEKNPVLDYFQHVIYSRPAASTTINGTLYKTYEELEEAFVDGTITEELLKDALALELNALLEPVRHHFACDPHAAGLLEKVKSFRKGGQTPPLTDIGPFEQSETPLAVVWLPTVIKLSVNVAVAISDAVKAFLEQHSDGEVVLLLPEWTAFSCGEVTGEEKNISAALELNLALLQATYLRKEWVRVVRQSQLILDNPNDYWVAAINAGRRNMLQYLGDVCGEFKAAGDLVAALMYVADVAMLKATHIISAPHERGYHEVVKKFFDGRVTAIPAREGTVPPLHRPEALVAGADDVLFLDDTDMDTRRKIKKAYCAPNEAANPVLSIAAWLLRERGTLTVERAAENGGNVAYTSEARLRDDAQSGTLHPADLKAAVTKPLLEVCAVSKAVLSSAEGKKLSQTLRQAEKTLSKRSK
- Measurement notes: Trypanosoma cruzi tyrosyl tRNA synthetase (TcYRS) SOP
- Type: functional
- Design: scale not given: direction of the effect not stated beside the values
- Condition set: 30 µM
Measured property: Percent Effect (%)

compound=CCc1nc(CN2CCN(C(=O)CCc3ccccc3)CC2)cs1 target_system="Tyrosyl-tRNA synthetase, putative (Trypanosoma cruzi (strain CL Brener)) (UniProt Q4DSP6)" measured_property="Percent Effect" numeric_result=17.7
compound=Cn1cnnc1CNC(=O)Nc1cc(C(F)(F)F)c[nH]c1=O target_system="Tyrosyl-tRNA synthetase, putative (Trypanosoma cruzi (strain CL Brener)) (UniProt Q4DSP6)" measured_property="Percent Effect" numeric_result=7.32
compound=NC(=O)C1CCN(C(=O)c2cccc(CN3CCOCC3)c2)CC1 target_system="Tyrosyl-tRNA synthetase, putative (Trypanosoma cruzi (strain CL Brener)) (UniProt Q4DSP6)" measured_property="Percent Effect" numeric_result=0
compound=COc1cc(C)nc(N2CCN(C(=O)CNC(C)(C)C)CC2)n1 target_system="Tyrosyl-tRNA synthetase, putative (Trypanosoma cruzi (strain CL Brener)) (UniProt Q4DSP6)" measured_property="Percent Effect" numeric_result=8.43
compound="CC(=O)N1CCN(C(=O)C2SCCc3sccc32)CC1 (stereo not drawn)" target_system="Tyrosyl-tRNA synthetase, putative (Trypanosoma cruzi (strain CL Brener)) (UniProt Q4DSP6)" measured_property="Percent Effect" numeric_result=-1.22
compound="NC(=O)CN1CCC(C(=O)N2CCCC(OCc3cccnc3)C2)CC1 (stereo not drawn)" target_system="Tyrosyl-tRNA synthetase, putative (Trypanosoma cruzi (strain CL Brener)) (UniProt Q4DSP6)" measured_property="Percent Effect" numeric_result=14.6
compound="CN(Cc1cnn(-c2ccccc2)n1)CC1CCCN1c1cccnn1 (stereo not drawn)" target_system="Tyrosyl-tRNA synthetase, putative (Trypanosoma cruzi (strain CL Brener)) (UniProt Q4DSP6)" measured_property="Percent Effect" numeric_result=13.6
compound=CN(C)[C@H]1CCCCN(C(=O)CCc2csc(N)n2)C1 target_system="Tyrosyl-tRNA synthetase, putative (Trypanosoma cruzi (strain CL Brener)) (UniProt Q4DSP6)" measured_property="Percent Effect" numeric_result=7.32
compound=Cc1nc[nH]c1CN1CCN(C(=O)CCC(F)(F)F)[C@H]2CS(=O)(=O)C[C@H]21 target_system="Tyrosyl-tRNA synthetase, putative (Trypanosoma cruzi (strain CL Brener)) (UniProt Q4DSP6)" measured_property="Percent Effect" numeric_result=12.2
compound=Cc1noc(C)c1CN(C)C(=O)NC1CCN(C2CC2)CC1 target_system="Tyrosyl-tRNA synthetase, putative (Trypanosoma cruzi (strain CL Brener)) (UniProt Q4DSP6)" measured_property="Percent Effect" numeric_result=8.43
compound=Cc1ccc(NC2CCN(C(=O)c3ccc(Cl)o3)CC2)nn1 target_system="Tyrosyl-tRNA synthetase, putative (Trypanosoma cruzi (strain CL Brener)) (UniProt Q4DSP6)" measured_property="Percent Effect" numeric_result=-7.32
compound="O=C1CC(c2cccc(O)c2)c2c(c(C(=O)O)cn2-c2ccccc2)N1 (stereo not drawn)" target_system="Tyrosyl-tRNA synthetase, putative (Trypanosoma cruzi (strain CL Brener)) (UniProt Q4DSP6)" measured_property="Percent Effect" numeric_result=-5.13
compound="COc1cccc(C(=O)N2CCCCC2CNC(N)=O)c1 (stereo not drawn)" target_system="Tyrosyl-tRNA synthetase, putative (Trypanosoma cruzi (strain CL Brener)) (UniProt Q4DSP6)" measured_property="Percent Effect" numeric_result=6.17
compound="CC(=O)Nc1nc(CN2CCCC2Cn2cc(C)cn2)cs1 (stereo not drawn)" target_system="Tyrosyl-tRNA synthetase, putative (Trypanosoma cruzi (strain CL Brener)) (UniProt Q4DSP6)" measured_property="Percent Effect" numeric_result=25.9
compound=Cc1cc(-c2cnc(NC3CCCC3)nc2-c2ccoc2C)on1 target_system="Tyrosyl-tRNA synthetase, putative (Trypanosoma cruzi (strain CL Brener)) (UniProt Q4DSP6)" measured_property="Percent Effect" numeric_result=3.9
compound="Cc1cnn(CCNCC(O)COc2ccc(Cl)cc2)c1 (stereo not drawn)" target_system="Tyrosyl-tRNA synthetase, putative (Trypanosoma cruzi (strain CL Brener)) (UniProt Q4DSP6)" measured_property="Percent Effect" numeric_result=8.86
compound="c1ccc2oc(N3CCCCC3Cn3cncn3)nc2c1 (stereo not drawn)" target_system="Tyrosyl-tRNA synthetase, putative (Trypanosoma cruzi (strain CL Brener)) (UniProt Q4DSP6)" measured_property="Percent Effect" numeric_result=25.6
compound="O=C(NCc1cc[nH]n1)NCC(O)COc1cccc(F)c1 (stereo not drawn)" target_system="Tyrosyl-tRNA synthetase, putative (Trypanosoma cruzi (strain CL Brener)) (UniProt Q4DSP6)" measured_property="Percent Effect" numeric_result=0
compound="NC(=O)c1cc(C2CCCN(CCOCC(F)(F)F)C2)n[nH]1 (stereo not drawn)" target_system="Tyrosyl-tRNA synthetase, putative (Trypanosoma cruzi (strain CL Brener)) (UniProt Q4DSP6)" measured_property="Percent Effect" numeric_result=10.8
compound=CC(C)c1nnc2n1CCN(C(=O)c1ccnc(N(C)C)c1)C2 target_system="Tyrosyl-tRNA synthetase, putative (Trypanosoma cruzi (strain CL Brener)) (UniProt Q4DSP6)" measured_property="Percent Effect" numeric_result=10.3
compound=CN(Cc1cc2c(cc1OC(F)F)OCO2)Cc1nccn1C target_system="Tyrosyl-tRNA synthetase, putative (Trypanosoma cruzi (strain CL Brener)) (UniProt Q4DSP6)" measured_property="Percent Effect" numeric_result=6.17
compound="CN(C)C(=O)Cc1nc(CN2CCCCC2Cn2cccn2)cs1 (stereo not drawn)" target_system="Tyrosyl-tRNA synthetase, putative (Trypanosoma cruzi (strain CL Brener)) (UniProt Q4DSP6)" measured_property="Percent Effect" numeric_result=-5.2
compound=CS(=O)(=O)N1CCN(C(=O)Cn2ccc3c(Cl)cccc32)CC1 target_system="Tyrosyl-tRNA synthetase, putative (Trypanosoma cruzi (strain CL Brener)) (UniProt Q4DSP6)" measured_property="Percent Effect" numeric_result=2.44
compound="NC(=O)c1cc(C2CCCN(CCCOc3ccccc3)C2)n[nH]1 (stereo not drawn)" target_system="Tyrosyl-tRNA synthetase, putative (Trypanosoma cruzi (strain CL Brener)) (UniProt Q4DSP6)" measured_property="Percent Effect" numeric_result=-1.21
compound=COCC(=O)N1CCC2(CCN(Cc3ccccn3)CC2)CC1 target_system="Tyrosyl-tRNA synthetase, putative (Trypanosoma cruzi (strain CL Brener)) (UniProt Q4DSP6)" measured_property="Percent Effect" numeric_result=5.13
compound=O=C(NCCCN1CCOCC1)c1cc(-c2ccc3c(c2)CCO3)n[nH]1 target_system="Tyrosyl-tRNA synthetase, putative (Trypanosoma cruzi (strain CL Brener)) (UniProt Q4DSP6)" measured_property="Percent Effect" numeric_result=-2.56
compound=N#CC1(C(=O)NCCCNc2ccc(C(F)(F)F)cn2)CCCC1 target_system="Tyrosyl-tRNA synthetase, putative (Trypanosoma cruzi (strain CL Brener)) (UniProt Q4DSP6)" measured_property="Percent Effect" numeric_result=4.88
compound="CSc1ccc(-c2nc(CN3CCC(NC(C)=O)C3)c(C)o2)cc1 (stereo not drawn)" target_system="Tyrosyl-tRNA synthetase, putative (Trypanosoma cruzi (strain CL Brener)) (UniProt Q4DSP6)" measured_property="Percent Effect" numeric_result=7.32
compound=Cc1ccc(OCCC(=O)N2CCN(c3cnccn3)CC2)cc1C target_system="Tyrosyl-tRNA synthetase, putative (Trypanosoma cruzi (strain CL Brener)) (UniProt Q4DSP6)" measured_property="Percent Effect" numeric_result=18.8
compound=COc1ccc(OCCNCCn2cccn2)cc1 target_system="Tyrosyl-tRNA synthetase, putative (Trypanosoma cruzi (strain CL Brener)) (UniProt Q4DSP6)" measured_property="Percent Effect" numeric_result=2.53
compound=Cc1oc(C)c(C(=O)NCc2ccccc2S(=O)(=O)N(C)C)c1C target_system="Tyrosyl-tRNA synthetase, putative (Trypanosoma cruzi (strain CL Brener)) (UniProt Q4DSP6)" measured_property="Percent Effect" numeric_result=7.32
compound=Cc1nc(CN2CCN(C(=O)COCc3ccccc3)CC2)no1 target_system="Tyrosyl-tRNA synthetase, putative (Trypanosoma cruzi (strain CL Brener)) (UniProt Q4DSP6)" measured_property="Percent Effect" numeric_result=3.7
compound=Cc1ncsc1C(=O)NC1CCN(Cc2ccc(C#N)cc2)CC1 target_system="Tyrosyl-tRNA synthetase, putative (Trypanosoma cruzi (strain CL Brener)) (UniProt Q4DSP6)" measured_property="Percent Effect" numeric_result=12.2
compound="COc1ccc(C2CC(=O)Nc3c2nc2n3CCCC2)cc1OC (stereo not drawn)" target_system="Tyrosyl-tRNA synthetase, putative (Trypanosoma cruzi (strain CL Brener)) (UniProt Q4DSP6)" measured_property="Percent Effect" numeric_result=14.6
compound=c1cncc(-c2nccc(CN3CCCC3)n2)c1 target_system="Tyrosyl-tRNA synthetase, putative (Trypanosoma cruzi (strain CL Brener)) (UniProt Q4DSP6)" measured_property="Percent Effect" numeric_result=14.3
compound=Cc1csc2c(=O)n3c(nc12)CCN(C(=O)c1cccnc1)CC3 target_system="Tyrosyl-tRNA synthetase, putative (Trypanosoma cruzi (strain CL Brener)) (UniProt Q4DSP6)" measured_property="Percent Effect" numeric_result=6.49
compound=CCn1cc(NC(=O)NCc2ccc(CN3CCOCC3)cc2)cn1 target_system="Tyrosyl-tRNA synthetase, putative (Trypanosoma cruzi (strain CL Brener)) (UniProt Q4DSP6)" measured_property="Percent Effect" numeric_result=11.8
compound=COc1ccc(-n2nnc(C(=O)NC(C)C)c2C2CC2)cc1 target_system="Tyrosyl-tRNA synthetase, putative (Trypanosoma cruzi (strain CL Brener)) (UniProt Q4DSP6)" measured_property="Percent Effect" numeric_result=0
compound=O=C(c1ccc(-n2cccn2)nc1)N1CCC(Nc2cccnn2)CC1 target_system="Tyrosyl-tRNA synthetase, putative (Trypanosoma cruzi (strain CL Brener)) (UniProt Q4DSP6)" measured_property="Percent Effect" numeric_result=9.41
compound="Cc1nc(C)n(CC2CCCN2Cc2nc(C3CC3)no2)n1 (stereo not drawn)" target_system="Tyrosyl-tRNA synthetase, putative (Trypanosoma cruzi (strain CL Brener)) (UniProt Q4DSP6)" measured_property="Percent Effect" numeric_result=4.88
compound=c1ccc(OCc2nnc3n2CCN(CC2CCOCC2)C3)nc1 target_system="Tyrosyl-tRNA synthetase, putative (Trypanosoma cruzi (strain CL Brener)) (UniProt Q4DSP6)" measured_property="Percent Effect" numeric_result=-89.7
compound=CC(C)(CNC(=O)NCCOc1cccc(F)c1)C(N)=O target_system="Tyrosyl-tRNA synthetase, putative (Trypanosoma cruzi (strain CL Brener)) (UniProt Q4DSP6)" measured_property="Percent Effect" numeric_result=17.1
compound="CCc1nc(C2CCCN2C(=O)c2nccnc2N)no1 (stereo not drawn)" target_system="Tyrosyl-tRNA synthetase, putative (Trypanosoma cruzi (strain CL Brener)) (UniProt Q4DSP6)" measured_property="Percent Effect" numeric_result=6.02
compound=O=C(C1CCOCC1)N1C[C@@H]2[C@@H](C1)OCC(=O)N2Cc1ccncc1 target_system="Tyrosyl-tRNA synthetase, putative (Trypanosoma cruzi (strain CL Brener)) (UniProt Q4DSP6)" measured_property="Percent Effect" numeric_result=-6.17
compound=Cc1cc(CN(C)C(=O)c2ccc(F)cc2Br)no1 target_system="Tyrosyl-tRNA synthetase, putative (Trypanosoma cruzi (strain CL Brener)) (UniProt Q4DSP6)" measured_property="Percent Effect" numeric_result=10.8
compound="Cc1ccc(CCN2CCC(N(C)Cc3noc(C4CC4)n3)C2)cc1 (stereo not drawn)" target_system="Tyrosyl-tRNA synthetase, putative (Trypanosoma cruzi (strain CL Brener)) (UniProt Q4DSP6)" measured_property="Percent Effect" numeric_result=8.43
compound=CC(=O)c1cccc(NC(=O)COc2c(C)n(C)ccc2=O)c1 target_system="Tyrosyl-tRNA synthetase, putative (Trypanosoma cruzi (strain CL Brener)) (UniProt Q4DSP6)" measured_property="Percent Effect" numeric_result=20.5
compound=CC(=O)c1sc(Nc2ccc(Cl)cn2)nc1C target_system="Tyrosyl-tRNA synthetase, putative (Trypanosoma cruzi (strain CL Brener)) (UniProt Q4DSP6)" measured_property="Percent Effect" numeric_result=-37.5
